Measured on: human melanocortin-4 receptor (hMC4-R) (human) (UniProt P32245)
Sequence (P32245 whole entry): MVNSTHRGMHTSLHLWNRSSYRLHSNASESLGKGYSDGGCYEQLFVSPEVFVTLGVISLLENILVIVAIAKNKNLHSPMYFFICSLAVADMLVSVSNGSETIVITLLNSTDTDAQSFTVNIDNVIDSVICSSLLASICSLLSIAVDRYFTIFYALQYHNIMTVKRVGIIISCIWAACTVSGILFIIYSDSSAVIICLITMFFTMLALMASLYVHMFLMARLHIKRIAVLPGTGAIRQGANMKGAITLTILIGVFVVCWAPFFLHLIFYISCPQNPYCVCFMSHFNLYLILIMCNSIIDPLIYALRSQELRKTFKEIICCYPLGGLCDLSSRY
Test details: 125I-NDP-α-MSH competition, hMC4-R membranes
Square brackets hold non-standard residues; d marks the D form. Ends that are not written are not given here. Nle = CCCC[C@H](N)C(=O)O
Measurement label: % Inhibition at 1 µM (%)

[1] YV[Nle]GHCFRWDRF-NH2 (also: oxorhenium(V) N3S1 chelate: C6 SG + backbone N of G4, H5, C6, bridge at 6 via Re(V)=O, other end not in the chain) [metallopeptide 4-7]
[2] Ac-SYS[Nle]CEHFRWGKPV-NH2 (also: oxorhenium(V) N3S1 chelate at Cys5) [metallopeptide 1-10]
(Q) From the recorded data, which exceeds the other in % Inhibition at 1 µM: 1 or 2 ? Bench note: the answer is the label of the chosen record.
(A) 2
(2: 7%, 1: 4%)
